- target-system: T1, IL-23 receptor on the surface of HEK-Blue IL-23 cells (UniProt Q5VWK5 24-629, limits assumed)
- T1 sequence (looked up): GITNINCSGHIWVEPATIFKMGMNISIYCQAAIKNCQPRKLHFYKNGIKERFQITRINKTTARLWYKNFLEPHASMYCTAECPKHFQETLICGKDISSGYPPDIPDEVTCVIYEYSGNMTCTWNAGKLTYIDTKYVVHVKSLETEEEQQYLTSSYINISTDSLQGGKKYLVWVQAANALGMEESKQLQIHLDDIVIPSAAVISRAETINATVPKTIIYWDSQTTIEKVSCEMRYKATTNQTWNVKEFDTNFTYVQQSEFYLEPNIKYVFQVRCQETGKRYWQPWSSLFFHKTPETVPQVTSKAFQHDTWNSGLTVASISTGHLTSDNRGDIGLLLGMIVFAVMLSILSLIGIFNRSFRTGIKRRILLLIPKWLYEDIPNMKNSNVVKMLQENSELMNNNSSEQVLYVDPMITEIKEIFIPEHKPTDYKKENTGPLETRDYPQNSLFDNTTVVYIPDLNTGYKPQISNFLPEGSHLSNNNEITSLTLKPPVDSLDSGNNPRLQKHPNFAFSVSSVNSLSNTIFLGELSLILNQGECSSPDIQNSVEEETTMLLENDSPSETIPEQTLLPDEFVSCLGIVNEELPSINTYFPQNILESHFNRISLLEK
- method-description: cell-based or functional assay
Starred links: 1 amine or outer side, 2 acyl side, 3 side chain; linkers in the order of their positions; H or OH if unused. Positions of bridges follow the written chain, without caps; N, C: chain ends. Non-standard residues stand in square brackets, D forms with d. No end group written: not given here. Yde = (2S)-2-amino-3-[4-[2-(dimethylamino)ethoxy]phenyl]propanoic acid, CN(C)CCOc1ccc(C[C@H](N[*:1])C(=O)[*:2])cc1; Trp(7-Me) = Cc1cccc2c(C[C@H](N)C(=O)O)c[nH]c12; αMeLys(Me2) = CN(C)CCCC[C@](C)(N)C(=O)O; 2Nal = N[C@@H](Cc1ccc2ccccc2c1)C(=O)O; 3Pal = N[C@@H](Cc1cccnc1)C(=O)O; Dad = desamino-aspartamic acid; Lys(Me) = CNCCCC[C@H](N)C(=O)O; Thp = NC1(C(=O)O)CCOCC1; Abu = CC[C@H](N)C(=O)O; Ava = NCCCCC(=O)O; Sar = CNCC(=O)O
readout-name: pSTAT3 (nM)
// return numeric value only (unit: nM, not printed)

* XXKXLCXXXXAXX (Dad(§1)-Nmc(§3)(@2)-K[aAc](@3)-Wim-L-C(@2)-Yde-Nal-Mie-Kme(§1)-A-Pal-Sar-NH2) [Compound of SEQ ID NO: 70] | 3.94
* [Ava]CNT[Trp(7-Me)]K(Ac)C[Yde][2Nal][Thp]ENH-NH2 (lactam N-11; disulfide 2-7; SMILES CC(=O)NCCCC[C@@H]1NC(=O)[C@H](Cc2c[nH]c3c(C)cccc23)NC(=O)[C@H]([C@@H](C)O)NC(=O)[C@H](CC(N)=O)NC(=O)[C@@H]2CSSC[C@H](NC1=O)C(=O)N[C@@H](Cc1ccc(OCCN(C)C)cc1)C(=O)N[C@@H](Cc1ccc3ccccc3c1)C(=O)NC1(CCOCC1)C(=O)N[C@H](C(=O)N[C@@H](CC(N)=O)C(=O)N[C@@H](Cc1c[nH]cn1)C(N)=O)CCC(=O)NCCCCC(=O)N2) [Compound of SEQ ID NO: 21] | 2.67
* [Dad]CNT[Trp(7-Me)]K(Ac)C[Yde][2Nal][αMeLys(Me2)][Lys(Me)]N[3Pal][Sar]-NH2 (lactam (positions not given here); disulfide 2-7; not fully specified (bridges); printed as Dad(§1)-C(@2)-N-T-Wim-K[Ac]-C(@2)-Yde-Nal-MKdm-Kme(§1)-N-Pal-Sar-NH2) [Compound of SEQ ID NO: 156] | 0.08
* [Ava]CNT[Trp(7-Me)]K(Ac)C[Yde][2Nal][Thp]ES[3Pal][Sar]-NH2 (lactam N-11; disulfide 2-7; SMILES CC(=O)NCCCC[C@@H]1NC(=O)[C@H](Cc2c[nH]c3c(C)cccc23)NC(=O)[C@H]([C@@H](C)O)NC(=O)[C@H](CC(N)=O)NC(=O)[C@@H]2CSSC[C@H](NC1=O)C(=O)N[C@@H](Cc1ccc(OCCN(C)C)cc1)C(=O)N[C@@H](Cc1ccc3ccccc3c1)C(=O)NC1(CCOCC1)C(=O)N[C@H](C(=O)N[C@@H](CO)C(=O)N[C@@H](Cc1cccnc1)C(=O)N(C)CC(N)=O)CCC(=O)NCCCCC(=O)N2) [Compound of SEQ ID NO: 56] | 0.16

Query string: Specify reported pSTAT3 (nM) for the binder shown: [Dad][Abu]K[Trp(7-Me)]K(Ac)C[Yde][2Nal][Thp]KN[3Pal][Sar]-NH2 (lactam (positions not given here); thioether 2-6; not fully specified (residue 3, bridges); printed as Dad(§1)-Abu(§3)(@2)-K[aAc](@3)-Wim-K[Ac]-C(@2)-Yde-Nal-Thp-K(§1)-N-Pal-Sar-NH2; also: K[aAc]: Abu2 bonded to epsilon-NH2 of acetylated Lys3, acetyl presumably on alpha-amine) [Compound of SEQ ID NO: 122]
Result string: 0.37
